Listing: MIC of selected compounds
- Test system: Haemophilus influenzae
- assay.overview: In vitro antimicrobial activity against Haemophilus influenzae.
- Type: functional
Give just the numeric value; mg/L need not be written.

Completed entries (count: 5):
CC[C@H]1OC(=O)C[C@@H](O)[C@H](C)[C@@H](O[C@@H]2O[C@H](C)[C@@H](O)[C@H](N(C)C)[C@H]2O)[C@@H](CC=O)C[C@@H](C)C(=O)/C=C/C(C)=C/[C@@H]1CO[C@@H]1O[C@H](C)[C@@H](O)[C@@H](O)[C@H]1OC    8
CC[C@H]1OC(=O)C[C@@H](O)[C@H](C)[C@@H](O[C@@H]2O[C@H](C)[C@@H](O[C@H]3C[C@@](C)(O)[C@@H](O)[C@H](C)O3)[C@H](N(C)C)[C@H]2O)[C@@H](CCI)C[C@@H](C)C(=O)/C=C/C(C)=C/[C@@H]1CO[C@@H]1O[C@H](C)[C@@H](O)[C@@H](O)[C@H]1OC    128
CC[C@H]1OC(=O)C[C@@H](O)[C@H](C)[C@@H](O[C@@H]2O[C@H](C)[C@@H](O)[C@H](N(C)C)[C@H]2O)[C@@H](CCOc2ccc(-c3ccccc3)cc2)C[C@@H](C)C(=O)/C=C/C(C)=C/[C@@H]1CO[C@@H]1O[C@H](C)[C@@H](O)[C@@H](OC)[C@H]1OC    16
CC[C@H]1OC(=O)C[C@@H](O)[C@H](C)[C@@H](O[C@@H]2O[C@H](C)[C@@H](O[C@H]3C[C@@](C)(O)[C@@H](O)[C@H](C)O3)[C@H](N(C)C)[C@H]2O)[C@@H](CCOc2cccc(N(C)C)c2)C[C@@H](C)C(=O)/C=C/C(C)=C/[C@@H]1CO[C@@H]1O[C@H](C)[C@@H](O)[C@@H](OC)[C@H]1OC    128
CC[C@H]1OC(=O)C[C@@H](O)[C@H](C)[C@@H](O[C@@H]2O[C@H](C)[C@@H](O)[C@H](N(C)C)[C@H]2O)[C@@H](CCO)C[C@@H](C)C(=O)/C=C/C(C)=C/[C@@H]1CO    32

IN: Give Haemophilus influenzae MIC for the following compound: `CC[C@H]1OC(=O)C[C@@H](O)[C@H](C)[C@@H](O[C@@H]2O[C@H](C)[C@@H](O)[C@H](N(C)C)[C@H]2O)[C@@H](CCN)C[C@@H](C)C(=O)/C=C/C(C)=C/[C@@H]1CO[C@@H]1O[C@H](C)[C@@H](O)[C@@H](OC)[C@H]1OC`
OUT: 128

* * *

- Tested on: Staphylococcus aureus
- assay.overview: In vitro antimicrobial activity against Staphylococcus aureus X1
- Assay type: functional
experimental.readout: MIC (µg/mL)
Give just the numeric value; µg/mL need not be written.

IN: Return value of MIC for input `CC[C@H]1OC(=O)C[C@@H](O)[C@H](C)[C@@H](O[C@@H]2O[C@H](C)[C@@H](O)[C@H](N(C)C)[C@H]2O)[C@@H](CCOC)C[C@@H](C)C(=O)/C=C/C(C)=C/[C@@H]1CO[C@@H]1O[C@H](C)[C@@H](O)[C@@H](OC)[C@H]1OC` , no commentary.
OUT: 0.5

IN: Return value of MIC for input `CC[C@H]1OC(=O)C[C@@H](O)[C@H](C)[C@@H](O[C@@H]2O[C@H](C)[C@@H](O[C@H]3C[C@@](C)(O)[C@@H](O)[C@H](C)O3)[C@H](N(C)C)[C@H]2O)[C@@H](CCNc2ccc(OC(C)=O)cc2)C[C@@H](C)C(=O)/C=C/C(C)=C/[C@@H]1CO[C@@H]1O[C@H](C)[C@@H](O)[C@@H](OC)[C@H]1OC` , no commentary.
OUT: 1
